Can you tell me Inf. H: Scedosporium apiospermum IHEM3817, pIC50 for the items I'm about to list?
# Test system: Scedosporium apiospermum
# ASSAY_EXPLANATION: Antifungal activity in vitro, resazurin growth inhibition: Scedosporium apiospermum (IHEM3817)
# Assay type: cell-based
One number for each entry.

Recorded Inf. H: Scedosporium apiospermum IHEM3817, pIC50, per entry:
COMPOUND: Clc1cc(C2=NCc3c(Cl)cccc3-n3cccc32)cnc1Cl [Compound 79]
QUANTITATIVE_READOUT: 6.12

COMPOUND: Cc1cccc2c1CN=C(c1cc3cccc(C)c3o1)c1cccn1-2 [Compound 131]
QUANTITATIVE_READOUT: 5.355

Could you now consider this next compound?
query: Form field: reported Inf. H: Scedosporium apiospermum IHEM3817, pIC50 of CCc1ccc(C2=NCc3c(Cl)cccc3-n3cccc32)cn1 [Compound 74]
result: 6.29

---

Can you tell me Inf. D: Candida parapsilosis B66126, pIC50 for the items I'm about to list?
# System: Candida parapsilosis
# ASSAY_EXPLANATION: Antifungal activity in vitro, resazurin growth inhibition: Candida parapsilosis (B66126)
# Type: cell-based
# Description: The standard susceptibility screen is performed in 96-well plates (U-bottom, Greiner Bio-One). Serial dilutions (2-fold or 4-fold) of 20 mM compound stock solutions are made in 100% DMSO, followed by an intermediate dilution step in water. These serial dilutions (10 μl) are then spotted onto test-plates that can be stored in the dark at 4° C. for a maximum period of 2 weeks. An adequate broad dose-range is included with 64 μM as the highest in-test concentration. […]

Recorded Inf. D: Candida parapsilosis B66126, pIC50, per entry:
MOLECULE: Cc1ccc2cc(C3NCc4c(Cl)cccc4-n4cccc43)oc2c1.Cl (racemic) [Compound 39]
EXPERIMENTAL_TARGET: Candida parapsilosis
RESULT: <4.19
//
MOLECULE: Clc1cc(Cl)c2c(c1)-n1cccc1C(c1cc3ccccc3o1)=NC2 [Compound 120]
EXPERIMENTAL_TARGET: Candida parapsilosis
RESULT: <4.19

query: Return Inf. D: Candida parapsilosis B66126, pIC50 measured with Candida parapsilosis given this molecule: Cc1cccc2c1CN=C(c1cc3cc(Cl)ccc3o1)c1cccn1-2 [Compound 122]
result: <4.19

---

# System: Scedosporium prolificans
# ASSAY_EXPLANATION: Antifungal activity in vitro, resazurin growth inhibition: Scedosporium prolificans (IHEM21157)
# Format: cell-based
Can you tell me Inf. I: Scedosporium prolificans IHEM21157, pIC50 for the items I'm about to list?

STRUCTURE_NOTATION: FC(F)(F)c1ccc(C2=NCc3ccccc3-n3cccc32)cn1
RESULT: 5.71

# per-item lookup of Inf. I: Scedosporium prolificans IHEM21157, pIC50; items listed below
1. Clc1ccc2c(c1)-n1cccc1C(c1cc3ccccc3s1)=NC2
2. Clc1cc(C2=NCc3c(Cl)cccc3-n3cccc32)cnc1Cl

result:
1. 5.65
2. 6.28

# per-item lookup of Inf. I: Scedosporium prolificans IHEM21157, pIC50; items listed below
1. COc1cccc2cc(C3=NCc4c(C)cccc4-n4cccc43)oc12
2. Clc1cc(Cl)c2c(c1)-n1cccc1C(c1cc3ccccc3s1)=NC2
3. Cn1nnc2ccc(C3=NCc4c(Cl)cc(Cl)cc4-n4cccc43)cc21
4. FC(F)(F)c1ccc(C2=NCc3c(Cl)cccc3-n3cccc32)cn1
5. CC(=O)c1ccc(C2=NCc3c(Cl)cccc3-n3cccc32)cn1
6. Cc1ccc2cc(C3=NCc4ccccc4-n4cccc43)oc2c1
7. Fc1cc(F)c2oc(C3=NCc4c(Cl)cccc4-n4cccc43)cc2c1
8. Cc1ccc2oc(C3=NCc4c(Cl)cccc4-n4cccc43)cc2c1

result:
[6.26, 6.48, 6.77, 6.28, "<4.19", 6.21, 7.10, 6.48]

# per-item lookup of Inf. I: Scedosporium prolificans IHEM21157, pIC50; items listed below
1. Clc1cccc2c1CN=C(c1cc3cccc(Cl)c3o1)c1cccn1-2
2. Cc1cccc2c1CN=C(c1cc3ccccc3o1)c1cccn1-2
3. Clc1ccc2c(c1)-n1cccc1C(c1ccc3sccc3c1)=NC2
4. CC(=O)c1ccc(C2=NCc3c(F)cc(F)cc3-n3cccc32)cn1
5. Fc1cc(F)c2c(c1)-n1cccc1C(c1ccc3sccc3c1)=NC2
6. Cc1cccc2cc(C3=NCc4ccccc4-n4cccc43)oc12

result:
1: 6.64; 2: 6.46; 3: 4.54; 4: <4.19; 5: 6.15; 6: 5.08

# per-item lookup of Inf. I: Scedosporium prolificans IHEM21157, pIC50; items listed below
1. Clc1cc(Cl)c2c(c1)-n1cccc1C(c1ccc3ncsc3c1)=NC2
2. Cn1ccc2ccc(C3=NCc4c(Cl)cccc4-n4cccc43)cc21

result:
[6.92, 5.72]

Origin of the recorded values: patent US9493468B2
